System: SW-620 colon
Assay: NCI-60 one-dose screen, 48 h (100 = growth as untreated, 0 = no growth, -100 = all killed)
Conditions: 10 µM
Compounds without any hit were thinned out: in the full panel of roughly 83,000, 20% have a hit.
Labelling field: enter yes (1) if recorded growth is less than 50%. Enter no (0) if it equals or exceeds that cut-off.

Q: Please let me know if O=S(=O)(O)c1ccc(Cl)cc1 shows growth below 50%.
Result: no (0)

Q: Also O=C(O)c1ccc(-n2cc(CNc3ccc(Oc4ccccc4)cc3)c(-c3ccccc3)n2)cc1 ?
Result: no (0)

Q: Also COc1cc2c(Nc3ccc(S(N)(=O)=O)cc3)ncnc2c(OC)c1OC ?
Result: no (0)

Q: Also C#C[C@]1(O)CCC2C3CCc4cc(OC5CCCC5)ccc4C3CC[C@@]21C (some centres undefined) ?
Result: no (0)

Q: Also COC(=O)CC[C@@H](C)[C@H]1CC[C@H]2[C@@H]3CC[C@@H]4C[C@H](O)CC[C@]4(C)[C@H]3C[C@H](O)[C@]12C ?
Result: no (0)

Q: Also COc1ccc(/C=C/c2nnc(/C=C/c3ccc(OC)c(OC)c3)o2)cc1OC ?
Result: yes (1)

Q: Also Cc1c2c[n+](C(C)C)ccc2c(C)c2c1[nH]c1ccccc12 ?
Result: yes (1)

Q: Also COc1cc(-c2nn(-c3cccc(NC(=O)NCCNC(=O)c4cccc(C(F)(F)F)c4)c3)cc2-c2ccncc2)ccc1Cl ?
Result: yes (1)

Q: Also Cc1ccc(C(SCC(N)C(=O)O)(c2ccc(C)cc2)c2ccc(C)cc2)cc1 (centres undefined) ?
Result: yes (1)

====

System: SF-539 CNS
Experiment: NCI-60 one-dose screen, 48 h (100 = growth as untreated, 0 = no growth, -100 = all killed)
Settings: 10 µM
The panel holds about 83,000 compounds, 20% with a hit somewhere; the sample as a whole holds those more often.
Labelling field: enter class 1 if recorded growth is less than 90%. Enter class 0 if it equals or exceeds that cut-off.

Q: Please let me know if COc1ccc(-c2nn(-c3cccc(Cl)c3)cc2-c2c(C#N)c(=O)n3[nH]c(-c4ccccc4)nc3c2C#N)cc1 shows growth below 90%.
Result: class 0

Q: Also CCOC(=O)C(C)(c1ccccc1)c1ccccc1 ?
Result: class 0

Q: Also COc1ccc(-c2nn(-c3cccc(Cl)c3)cc2-c2cc(-c3cccs3)[nH]c(=S)n2)cc1 ?
Result: class 1

Q: Also CCc1cc(Cl)c(OC)c(C(=O)NCC2CCCN2CC)c1O (stereo not given) ?
Result: class 0

Q: Also COc1ccc(-c2cc(-c3ccc(Cl)cc3)nc(SCCCC(=O)NO)n2)cc1OC ?
Result: class 1

Q: Also CS(=O)(=O)c1nccc(-c2c(-c3cccc(OCc4ccc(F)cc4)c3)nc3sccn23)n1 ?
Result: class 0

Q: Also CCn1c(SCCc2ccccc2)nnc1-c1nn(-c2ccc(Cl)cc2Cl)c(-c2ccc(Cl)cc2)c1C ?
Result: class 1

Q: Also COCCn1cc(-c2nc(-c3cccnc3)cs2)c2cc(F)ccc21 ?
Result: class 1

Q: Also Cc1c(C(N)=O)sc2c1c(=O)n(Cc1ccccc1)c1nnc(-c3ccc(Br)cc3)n21 ?
Result: class 1

====

Test system: SK-MEL-5 melanoma
Assay: NCI-60 one-dose screen, 48 h
Conditions: 10 µM
About 83,000 compounds went through this panel and 20% of them were active in at least one assay; those are over-represented in the sample as a whole. Calls of active or inactive are those of the source. How the source made its calls: active means growth percent below 10; inactive means the rest.
Just give me one of these, please: 1 (yes) (active), 0 (no) (inactive)

Q: Called result for CCC(C)[C@H](NC(C)=O)C(=O)N[C@@H](CCCNC(=N)N)C(=O)N[C@@H](CCCCN)C(=O)N[C@@H](CC1CCC(O)CC1)C(=O)NC(C(=O)N[C@@H](CCSC)C(=O)N[C@@H](CCCNC(=N)N)C(=O)N[C@@]1(C)CCC/C=C\CCC[C@@](C)(C(=O)NC(C(=O)N[C@@H](CCC(=O)O)C(=O)N[C@@H](CC(C)C)C(=O)N[C@H](C(=O)N[C@@H](CCC(=O)O)C(N)=O)C(C)C)[C@@H](C)O)NC(=O)[C@H](CCC(N)=O)NC(=O)[C@H](CC(C)C)NC(=O)[C@H](CC(C)C)NC1=O)[C@@H](C)O (some centres not stated)
Result: 0 (no)

Q: Also CN(C)CCCOc1ccc(NC2=C(Cl)C(=O)C(Nc3ccc(OCCCN(C)C)cc3)=C(Cl)C2=O)cc1 ?
Result: 1 (yes)

====

Tested on: HT29 colon
Assay: NCI-60 one-dose screen, 48 h
Details: 10 µM
The panel holds about 83,000 compounds, 20% with a hit somewhere; the sample as a whole holds those more often. Active and inactive are the calls of the source. Rule for the calls: active = growth percent below 10; inactive = the rest.
Just give me one of these, please: active, inactive

Q: Called result for Oc1cccc(-c2nc3sccn3c2-c2ccncn2)c1
Result: inactive

Q: Also Cc1cc(Cl)ccc1Nc1nc(C(F)(F)F)ccc1C(=O)N/N=C/c1c(Cl)cccc1Cl ?
Result: active

Q: Also Clc1ccc2c(c1)C(N1CCNCC1)=Nc1ccccc1O2 ?
Result: inactive

Q: Also C[C@@H](O)[C@H]1C(=O)N2C(C(=O)O)=C(SC3CN[C@H](C(=O)N(C)C)C3)[C@H](C)[C@H]12 (stereo not given in full) ?
Result: inactive

Q: Also COC(=O)CC[C@@H](C)[C@H]1CC[C@H]2[C@@H]3CC[C@@H]4C[C@H](O)CC[C@]4(C)[C@H]3C[C@H](O)[C@]12C ?
Result: inactive

====

Tested on: NCI-H226 lung
Assay: NCI-60 one-dose screen, 48 h
Details: 10 µM
This is part of a sample that, as a whole, favours compounds with a hit. Of some 83,000 tested, about 20% had one in any assay. Calls of active or inactive are those of the source. The calls were made as follows: active = growth percent below 10; inactive = the rest.
Just give me one of these, please: active, inactive

Q: Called result for CC1=NN(C(=O)c2nn(-c3ccc(Cl)cc3)cc2O)C(=O)C1
Result: inactive

Q: Also Cc1cc(C)nc(NS(=O)(=O)c2ccc(Nc3nc4nc(NCc5ccccc5)nc(-c5ccc(O)cc5)c4c(=O)[nH]3)cc2)n1 ?
Result: inactive

Q: Also COc1ccc(-c2nn(-c3cccc(Cl)c3)cc2-c2c(C#N)c(=O)n3[nH]c(-c4ccccc4)nc3c2C#N)cc1 ?
Result: inactive

Q: Also C=C1CCC2(C#N)[C@H]3[C@H](CC[C@@H]2C)[C@@H](C)C[C@@H](CC(C)(C)NC(=O)CN2CCC2=O)[C@H]13 (stereo not given in full) ?
Result: inactive

Q: Also Cc1cc(CCNC=O)c(C)c2c1sc1ccccc12 ?
Result: inactive

Q: Also Cc1nc2n(c(=O)c1CCN1CCC(c3noc4cc(F)ccc34)CC1)CCC[C@@H]2O ?
Result: inactive

Q: Also CN1C(=O)C2(Nc3cc(Cl)ccc3S2)c2cc(Cl)ccc21 (stereo not given) ?
Result: inactive

Q: Also CCCCN1C(=O)CC(SC2CC(=O)N(CCCC)C2=O)C1=O (stereo not given) ?
Result: inactive

Q: Also C#CCOc1c(OC)cc(C(=O)/C(C)=C/c2cccc(N=[N+]=[N-])c2)cc1OC ?
Result: inactive

Q: Also COc1cc(/C=C/c2cc(/C=C/c3ccc(O)c(OC)c3)n(C(=O)Nc3ccccc3Cl)n2)ccc1O ?
Result: active

Q: Also COc1ccc(C(=O)c2ccccc2CN2C(=O)c3ccccc3C2=O)cc1 ?
Result: inactive

Q: Also O=C(CC(CC(=O)c1ccccc1)c1ccccc1O)c1ccccc1 ?
Result: inactive

Q: Also COc1cc(C2C(C#N)=C(N)Oc3cc(O)ccc32)cc(OC)c1OC (stereo not given) ?
Result: inactive

Q: Also O=C(Nc1nc(-c2ccccc2)nc2c1sc(=S)n2-c1ccccc1)C(F)(F)F ?
Result: inactive

Q: Also O=C(CNc1nnc(-c2cccnc2SCc2ccccc2)s1)Nc1nc(Cl)cc(Cl)n1 ?
Result: inactive

Q: Also Cc1c2cnccc2c(C)c2c1c1cc(O)ccc1n2C(C)C ?
Result: inactive

Q: Also COc1ccc(-c2nn(-c3cccc(Cl)c3)cc2/C=C2\NC(=S)N(c3ccc(Cl)cc3)C2=O)cc1 ?
Result: active

Q: Also O=C(CCCCC(=O)Oc1c(Cl)cc(Cl)cc1[N+](=O)[O-])Oc1c(Cl)cc(Cl)cc1[N+](=O)[O-] ?
Result: inactive

Q: Also N#Cc1c(-c2ccc(Cl)cc2)n(O)c2ccccc12 ?
Result: inactive

Q: Also COc1ccc2c(c1)CC=C1[C@@H]2CC[C@]2(C)C(=O)/C(=N/O)C[C@@H]12 ?
Result: inactive

====

System: OVCAR-5 ovarian
Experiment: NCI-60 one-dose screen, 48 h
Settings: 10 µM
This is part of a sample that, as a whole, favours compounds with a hit. Of some 83,000 tested, about 20% had one in any assay. Calls of active or inactive are those of the source. How the source made its calls: active means growth percent below 10; inactive means the rest.
Just give me one of these, please: active, inactive

Q: Called result for O=[N+]([O-])c1ccc2ncccc2c1Cl
Result: inactive

Q: Also CCC(CC)n1c(C)cc(=O)n1C(CC)CC ?
Result: inactive

Q: Also COc1ccc2c(c1)C(=O)/C(=C/c1cccc(OCC(=O)c3ccc([N+](=O)[O-])cc3)c1)CO2 ?
Result: inactive

Q: Also CCCN(CCC)C(=O)[C@H](CC)[C@@H]1CC[C@@H](C)[C@@H]([C@H](C)[C@@H](O)[C@@H](C)C(=O)[C@H](CC)C2O[C@]3(C=C[C@@H](O)[C@]4(CC[C@@](C)([C@H]5CC[C@](O)(CC)[C@H](C)O5)O4)O3)[C@H](C)C[C@@H]2C)O1 (some centres not stated) ?
Result: inactive

Q: Also COc1cc2c3c(n([C@H]4CCOC4)c(=O)c2cc1OC)-c1cc2c(cc1C3=O)OCO2 ?
Result: inactive

Q: Also COC(=O)c1cc2oc(/C=C3/SC(=S)N(N)C3=O)cc2n1Cc1ccccc1 ?
Result: inactive

Q: Also CCOC(=O)Cn1c(=O)c2sc3ncccc3c2n2nnc(-c3ccccc3)c12 ?
Result: inactive

Q: Also CCCCN(CCCC)C(=O)[C@H](CC)[C@@H]1CC[C@@H](C)[C@@H]([C@H](C)[C@@H](O)[C@@H](C)C(=O)[C@H](CC)C2O[C@]3(C=CC(=O)[C@]4(CC[C@@](C)([C@H]5CC[C@](O)(CC)[C@H](C)O5)O4)O3)[C@H](C)C[C@@H]2C)O1 (some centres not stated) ?
Result: inactive

Q: Also CCc1ccc(-c2ccc(-n3nc(C)c4c(N)nc(Cc5ccccc5)nc43)cc2)cc1 ?
Result: inactive

Q: Also c1ccc(CSc2ncccc2-c2nnc(SCCN3CCOCC3)o2)cc1 ?
Result: inactive

Q: Also N#Cc1c(N)nc(-c2cc(F)cc(C(F)(F)F)c2)nc1-c1ccccc1F ?
Result: inactive

Q: Also COc1cc2cc(Oc3ccc(NC(=O)Nc4ccc(Cl)c(C(F)(F)F)c4)cc3)c(C)nc2cc1OC ?
Result: inactive

Q: Also CCCc1nc(C(C)(C)O)c(C(=O)O)n1Cc1ccc(-c2ccccc2-c2nn[nH]n2)cc1 ?
Result: inactive

Q: Also CN(C)CCCN1c2ccccc2CCc2ccc(Cl)cc21 ?
Result: inactive

Q: Also COc1cc(/C=C2\CCCC3=C2N=C2SC(C)=CN2C3c2cc(OC)c(OC)c(OC)c2)cc(OC)c1OC (configuration not stated) ?
Result: active

Q: Also NC(N)=N/N=C(\N=Nc1ccccc1)c1ccc(Cl)cc1 ?
Result: inactive

Q: Also O=C(CSc1nccc(Nc2cccc3ccccc23)n1)c1ccc(Cl)cc1 ?
Result: inactive

Q: Also Nc1c(Br)cc(Br)c2c1[nH]c(=O)c1ccccc12 ?
Result: inactive

Q: Also CC(C)C1=C(O)C2=C(C(=O)C1=O)[C@@]1(C)CCCC(C)(C)[C@@H]1CC2 ?
Result: inactive

Q: Also CC(=O)Oc1cc(OC(C)=O)c2ccccc2c1OC(C)=O ?
Result: inactive

Q: Also Nc1cc(Br)c(-c2nn3c(CCC(=O)c4nc5ccccc5[nH]4)nnc3s2)c(Br)c1 ?
Result: inactive

Q: Also C=C(C)[C@@H]1CC[C@]2(COCCC#N)CC[C@]3(C)[C@H](CC[C@@H]4[C@@]5(C)Cc6c([nH]c7ccccc67)C(C)(C)[C@@H]5CC[C@]43C)[C@@H]12 ?
Result: inactive

Q: Also CC[C@@H](C(=O)[C@H](C)[C@H](O)[C@@H](C)[C@H]1O[C@H]([C@@H](CC)C(=O)O)CC[C@H]1C)C1O[C@]2(C=C[C@@H](O)[C@]3(CC[C@@](C)([C@H]4CC[C@](O)(CC)[C@H](C)O4)O3)O2)[C@H](C)C[C@@H]1C (some centres not stated) ?
Result: inactive

Q: Also COc1ccc(C(=O)N2C=Cc3ccccc3C2C#N)cc1 (configuration not stated) ?
Result: inactive

Q: Also Nc1cc(-c2ccncc2)c[nH]c1=O ?
Result: inactive

Q: Also CCOc1ccccc1/C=N/N1CCCCCC1 ?
Result: inactive

Q: Also N#Cc1cnn(C(=O)c2nn(-c3ccc(Cl)cc3)cc2O)c1N ?
Result: inactive

Q: Also Cc1cc(CCNC=O)c(C)c2c1sc1ccccc12 ?
Result: inactive

Q: Also O=C(CCn1cnc2c(cc(-c3ccccc3)n2-c2ccccc2)c1=O)Nc1ccc(F)cc1 ?
Result: inactive

Q: Also CCN(CC)CCNc1ccc(C)c2sc3cc(Cl)ccc3c(=O)c12 ?
Result: inactive

Q: Also CN(C)c1nc(N)c2nccnc2n1 ?
Result: inactive

Q: Also CN1CCN(CCC(=O)Nc2cccc(-n3cc(-c4ccncc4)c(-c4ccc(Cl)c(O)c4)n3)c2)CC1 ?
Result: inactive

Q: Also NS(=O)(=O)c1ccc(Br)cc1 ?
Result: inactive

Q: Also COC1=CC(=O)OC(c2ccc(OC)cc2)C1 (configuration not stated) ?
Result: inactive

Q: Also CCOC(=O)c1cc(C(=O)c2cc(OC)cc(OC)c2)n2nc(C)ccc12 ?
Result: inactive

Q: Also CCN(CC)CCCC(Nc1c2ccc(Cl)cc2nc2ccc(OC)cc12)c1ccc(F)cc1 (configuration not stated) ?
Result: inactive

Q: Also COc1ccc(-c2nn(-c3cccc(Cl)c3)cc2-c2cc(-c3ccccc3)nc(N)n2)cc1 ?
Result: inactive
